Just for reference, patent US6831190B1 is where these values come from.

Can you tell me MIC for the items I'm about to list?
Tested on: Helicobacter pylori No. 28
test name: MIC, agar plating dilution, clinical segregation strain
Assay type: cell-based
assay setup: Strain 10: Helicobacter pylori No. 28
Answers are plain numbers, in µg/mL.

smiles str: Cc1cccc(COC(=O)c2ccc(-c3ccc(OC(=O)[C@H]4CC[C@H](CNC(=N)N)CC4)cc3)cc2)c1.Cl
system under test: Helicobacter pylori No. 28
units text: µg/mL
observed: 0.39
--
smiles str: Cc1ccc(CCOC(=O)c2ccc(-c3ccc(OC(=O)[C@H]4CC[C@H](CNC(=N)N)CC4)cc3)cc2)cc1.Cl
system under test: Helicobacter pylori No. 28
units text: µg/mL
observed: 0.39
--
smiles str: Cc1ccc(COC(=O)c2ccc(-c3ccc(OC(=O)[C@H]4CC[C@H](CNC(=N)N)CC4)cc3)cc2)cc1.Cl
system under test: Helicobacter pylori No. 28
units text: µg/mL
observed: 0.39

[ask] Quick one: MIC of Cc1ccccc1COC(=O)c1ccc(-c2ccc(OC(=O)[C@H]3CC[C@H](CNC(=N)N)CC3)cc2)cc1.Cl ?
[reply] 0.39

---

Tested on: Helicobacter pylori No. 3
test name: MIC, agar plating dilution, clinical segregation strain
Type: cell-based
assay setup: Strain 6: Helicobacter pylori No. 3
measured attribute: MIC (µg/mL)
One number for each entry, in µg/mL.

I need MIC for every entry listed below, if you could help.
1. Cl.N=C(N)NC[C@H]1CC[C@H](C(=O)Oc2ccc(-c3ccc(Cl)cc3)cc2)CC1
2. CCOC(=O)c1ccc(-c2ccc(OC(=O)[C@H]3CC[C@H](CNC(=N)N)CC3)cc2)cc1.Cl
3. Cl.N=C(N)NC[C@H]1CC[C@H](C(=O)Oc2ccc(-c3ccccc3)cc2)CC1 [Compound 1, reference compound]
4. Cl.N=C(N)NC[C@H]1CC[C@H](C(=O)Oc2ccc(-c3ccc(C(=O)OCCCc4ccccc4)cc3)cc2)CC1

[reply]
0.10
0.39
0.39
0.20

For each of the items listed, what is its MIC?
1. Cl.N=C(N)NC[C@H]1CC[C@H](C(=O)Oc2ccc(-c3ccc(C(=O)OCC4CCCCC4)cc3)cc2)CC1
2. Cc1ccc(COC(=O)c2ccc(-c3ccc(OC(=O)[C@H]4CC[C@H](CNC(=N)N)CC4)cc3)cc2)cc1.Cl

[reply]
1. 0.20
2. 0.10
